target: UniProt P34972; test: cAMP Assay: CHO cells expressing human CB1 or CB2 receptors are seeded 17-24 hours prior to the experiment 50.000 cells per well in a black 96 well plate with flat clear bottom (Corning Costar #3904) in DMEM (Invitrogen No. 31331), 1×HT supplement, with 10% fetal calf serum and incubated at 5% CO2 and 37 °C. in a humidified incubator. The growth medium was exchanged with Krebs Ringer Bicarbonate buffer with 1 mM IBMX and incubated at 30 °C. for 30 min. Compounds were added to a final assay volume of 100 μl and incubated for 30 min at 30 °C. Using the cAMP-Nano-TRF detection kit the assay (Roche Diagnostics) was stopped by the addition of 50 μl lysis reagent (Tris, NaCl, 1.5% Triton X100, 2.5% NP40, 10% NaN3) and 50 μl detection solutions (20 μM mAb Alexa700-cAMP 1:1, and 48 μM Ruthenium-2-AHA-cAMP) and shaken for 2 h at room temperature. The time-resolved energy transfer is measured by a TRF reader (Evotec Technologies GmbH), equipped with a ND:YAG laser as excitation source. The plate is measured twice with the excitation at 355 nm and at the emission with a delay of 100 ns and a gate of 100 ns, total exposure time 10 s at 730 (bandwidth 30 nm) or 645 nm (bandwidth 75 nm), respectively. The FRET signal is calculated as follows: FRET=T730-Alexa730-P(T645-B645) with P=Ru730-B730/Ru645-B645, where T730 is the test well measured at 730 nM, T645 is the test well measured at 645 nm, B730 and B645 are the buffer controls at 730 nm and 645 nm, respectively. cAMP content is determined from the function of a standard curve spanning from 10 μM to 0.13 nM cAMP.
Sequence (P34972 whole entry): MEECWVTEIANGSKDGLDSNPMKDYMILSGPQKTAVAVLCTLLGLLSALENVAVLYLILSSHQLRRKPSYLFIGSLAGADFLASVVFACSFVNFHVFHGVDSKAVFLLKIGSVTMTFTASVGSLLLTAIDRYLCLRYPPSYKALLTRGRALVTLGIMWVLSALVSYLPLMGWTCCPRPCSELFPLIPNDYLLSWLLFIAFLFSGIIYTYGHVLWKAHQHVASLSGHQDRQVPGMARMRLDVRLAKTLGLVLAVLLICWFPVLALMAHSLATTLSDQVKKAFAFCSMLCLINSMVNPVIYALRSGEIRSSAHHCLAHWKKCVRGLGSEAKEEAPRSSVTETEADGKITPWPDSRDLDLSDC

compound: CC1(C)CC(C(N)=O)N(C(=O)c2ccc(N3CC(F)(F)C3)c(OCC3CC3)n2)C1 (configuration not stated)
EC50 (nM): 6.6
//
compound: CC(C)N(C(=O)c1ccc(N2CC(F)(F)C2)c(OCC2CC2)n1)C(C)C
EC50 (nM): 12.6
